# study system: GPC3 (analyte of Tables 9 and 10) (UniProt P51654 25-559, limits assumed)
# measurement description: SPR (Biacore T200), purified antibody captured through Fc, GPC3 as analyte, 1:1 model
property: koff (s⁻¹)
// return numeric value only (unit: s⁻¹, not printed)

Ask: Which value of koff has been reported for 9VH3VL2-hIgG1 (antibody, V domains shown, Humanized LAb19309, full-length human IgG1/kappa; also called 9VH3VL2-hIgG1 mAb) VH: QVQLVQSGAEVKKPGASVKVSCKASGYTFTDYEMHWVRQATGQGLEWMGGIDPETGNTAYSQKFKGRVTMTRNTSISTAYMELSSLRSEDTAVYYCARYYSFAYWGQGTLVTVSS VL: DIVMTQSPLSLPVTPGEPASISCRSSQTIVHSNGNTYLEWYLQKPGQSPQLLIYKVSNRFSGVPDRFSGSGSGTDFTLKISRVEAEDVGVYYCFQVSHVPYTFGGGTKLEIKR in the records?
Result: 9.01e-05

Data provenance: patent US20230088461A1
